Measurement type: melting point

> print(dat)
                          chemical.structure  measurement.type             obs.value
 1  CCCn1c(-c2ccccc2)c(CN2CCC(c3c(Cl)cccc3Cl)CC2)c2ccccc21.Cl     melting point         150 to 152 °C
 2  Cl.Clc1cccc(Cl)c1C1CCN(Cc2c[nH]c3ccccc23)CC1     melting point         189 to 190 °C
 3  Cl.OCCn1c(CN2CCC(c3c(Cl)cccc3Cl)CC2)cc2ccccc21     melting point         263 to 265 °C
 4  Cl.Cn1c(-c2ccccc2)c(CN2CCC(c3c(Cl)cccc3Cl)CC2)c2ccccc21     melting point  179 to 184 °C (dec.)
 5  Cl.Clc1cccc(Cl)c1C1CCN(Cc2cc3ccccc3[nH]2)CC1     melting point         238 to 240 °C
 6  Cl.Clc1cccc(Cl)c1C1CCN(Cc2c(-c3ccccc3)[nH]c3ccccc23)CC1     melting point         169 to 171 °C
 7  Clc1cccc(Cl)c1C1CCN(Cc2[nH]c3ccccc3c2-c2ccccc2)CC1     melting point         162 to 164 °C
 8  Cc1c(CN2CCC(c3c(Cl)cccc3Cl)CC2)[nH]c2ccccc12     melting point         139 to 141 °C
 9  Cl.OCCn1c(-c2ccccc2)c(CN2CCC(c3c(Cl)cccc3Cl)CC2)c2ccccc21     melting point         205 to 206 °C
10  Cl.Clc1cccc(Cl)c1C1CCN(Cc2c(-c3ccccc3)n(Cc3ccccc3)c3ccccc23)CC1     melting point         209 to 210 °C
11   Cc1cccc(C)c1C1CCN(Cc2cc3ccccc3[nH]2)CC1     melting point         128 to 130 °C
12  Cc1[nH]c2ccccc2c1CN1CCC(c2c(Cl)cccc2Cl)CC1     melting point         168 to 170 °C
